Test system: A549
Assay: Anticancer activity against human A549 cells assessed as cell growth inhibition measured for 72 hrs by MTT assay
Assay type: functional, cell-based
Conditions: A549, 72 h
metric: IC50 (µM)

INSERT INTO results (compound, systemundertest, metric, unitannotation, resultvalue) VALUES
  ('CCN(CC)CCCC(C)Nc1ccnc2cc(Cl)ccc12 (stereo not given)', 'A549', 'IC50', 'µM', 100),
  ('C=C(c1ccc(Cl)c(Cl)c1Cl)C1COC2(CCCCC2)OO1 (stereo not given)', 'A549', 'IC50', 'µM', 1.37),
  ('C=C(c1ccc(OC)c(F)c1)C1COC2(CCCC2)OO1 (stereo not given)', 'A549', 'IC50', 'µM', 9.7),
  ('C[C@@H]1CC[C@H]2[C@@H](C)C(=O)O[C@@H]3O[C@@]4(C)CC[C@@H]1[C@]32OO4', 'A549', 'IC50', 'µM', 9.85),
  ('C=C(c1ccc(F)c(F)c1)C1COC2(CCCCC2)OO1 (stereo not given)', 'A549', 'IC50', 'µM', 7.88);

// provenance: ChEMBL document CHEMBL5053494
